B1: ANKRD40 (parent)
chain: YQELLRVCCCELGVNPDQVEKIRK

# Variants of: B1
# test-description: protein stability index of a GFP-peptide fusion (GPS, HEK-293T) (PSI 1-6); higher = more stable;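 further: lentivirally expressed fusions sorted by FACS into six bins by GFP to DsRed ratio, PSI derived from sequencing read proportions per bin multiplied by bin number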
# experimental-setup: c terminus: a fixed tail appended
property: protein stability index
API note: the answer field is a bare number with no unit suffix.

variant-code: R6C
protein stability index: 1.92

variant-code: I22R
protein stability index: 1.88

variant-code: Q18H
protein stability index: 1.48

variant-code: C10L
protein stability index: 1.86

variant-code: R6H
protein stability index: 2.11

variant-code: V14I
protein stability index: 1.61

variant-code: Q18L
protein stability index: 1.67

variant-code: Q18E
protein stability index: 2.13

variant-code: E11D
protein stability index: 1.89

variant-code: V14A
protein stability index: 1.99

Qu. What does the record list as protein stability index for E11R ?
Ans. 1.32

Qu. // next record C8M
Ans. 2.09

Qu. // next record R23L
Ans. 1.98

Qu. // next record N15C
Ans. 1.63
